Reference source for all entries: PubChem BioAssay (NCATS)

Assay: Cell Viability - LYMP2-006 (AID 978);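 note: cells exposed to compound for 24 hours; nearly all actives have a fitted effect of over 60% in size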
Settings: LYMP2-006 lymphoblastoid cell viability, qHTS; series mostly up to 92.2 µM
Results filed as inconclusive are left out. Active and inactive are the calls of the source. Calls come from the whole dose curve; as a rule, active = well fitted cell-killing curve with a large enough effect; inconclusive = small, poorly fitted or top-dose-only effect; inactive = flat fitted curve, though single readings scatter.
One label from this list, please: active, inactive

molecule: NCCN
category: inactive
//
molecule: C=C1C(CCl)(CCl)C2(Cl)C(Cl)C(Cl)C1(Cl)C2(Cl)Cl (configuration not stated)
category: active
//
molecule: OCc1ccccc1
category: inactive

Ask: In this assay, the call recorded for `OCl` was what?
Result: inactive

Ask: Kindly provide the recorded test outcome for the following molecule: `ClC(Cl)Cl`
Result: inactive

Ask: Hey, what did the test say about `CCCCC` ?
Result: inactive

Ask: Per the assay record, what outcome was assigned to `Oc1ccc(/C=C/c2cc(O)cc(O)c2)cc1` ?
Result: inactive

Ask: Record lookup: outcome of this test for `CC[C@H]1OC(=O)[C@H](C)[C@@H](O[C@H]2C[C@@](C)(OC)[C@@H](O)[C@H](C)O2)[C@H](C)[C@@H](O[C@@H]2O[C@H](C)C[C@H](N(C)C)[C@H]2O)[C@](C)(O)C[C@@H](C)CN(C)[C@H](C)[C@@H](O)[C@]1(C)O` ?
Result: inactive

Ask: Dear all, I need the recorded test outcome for `Oc1cccc(O)c1O` , thank you.
Result: inactive

Ask: Could you please tell me the result logged for `CO/N=C(/C(=O)N[C@@H]1C(=O)N2C(C(=O)O)=C(COC(N)=O)CS[C@H]12)c1ccco1` in this assay?
Result: inactive

Ask: Status in this test for `Nc1nccs1` ?
Result: inactive

Ask: Recorded test call requested for `O.O.O.O.O.O.O.O=S(=O)([O-])[O-].[Co+2]`
Result: inactive

----------
Test system: Dd2
Assay: qHTS profiling for inhibitors of Plasmodium falciparum proliferation (AID 504749); note: nearly all actives have a fitted effect of over 60% in size
Details: P. falciparum in erythrocytes, SYBR Green DNA, 72 h; series mostly up to 28.7 µM
Inconclusive results are not listed. Active and inactive are the calls of the source. Calls come from the whole dose curve; as a rule, active = well fitted inhibition curve with a large enough effect; inconclusive = small, poorly fitted or top-dose-only effect; inactive = flat fitted curve, though single readings scatter.
Respond only with the outcome that fits, drawn from y = active, n = inactive

Please review the entries below; each comes with its answer.
compound: CN1c2c(nc(N)[nH]c2=O)NCC1CNc1ccc(C(=O)NC(CCC(=O)O)C(=O)O)cc1 (configuration not stated)
category: n

compound: COc1cc(S(C)=O)ccc1-c1nc2ncccc2[nH]1 (configuration not stated)
category: n

compound: O=C(O)c1ccc(OCCn2ccnc2)cc1
category: n

compound: CC(C)CCC[C@@H](C)[C@H]1CC[C@H]2[C@@H]3CC[C@@H]4C[C@H](O)CC[C@]4(C)[C@H]3CC[C@]12C
category: n

Ask: Hi team, can someone confirm the assay call for `CC(C)=CCC/C(C)=C/C=C/C(C)=C/C=C/C(C)=C/C=C/C=C(C)/C=C/C=C(C)/C=C/C=C(\C)CCC=C(C)C` ?
Result: n

Ask: Dear all, I need the recorded test outcome for `c1ccc(-n2cnnn2)cc1` , thank you.
Result: n

Ask: Answer briefly: the call reported for `COc1ccc(/C=C/C(=O)OCCC(C)C)cc1` in this assay.
Result: n

----------
Tested on: TAB109
Assay: qHTS profiling for inhibitors of Plasmodium falciparum proliferation (AID 504749); note: nearly all actives have a fitted effect of over 60% in size
Conditions: P. falciparum in erythrocytes, SYBR Green DNA, 72 h; series mostly up to 28.7 µM
Records with an inconclusive call do not appear. Activity calls are given as the source filed them. The call rests on the fitted dose curve; in most records, active means well fitted inhibition curve with a large enough effect; inconclusive means small, poorly fitted or top-dose-only effect; inactive means flat fitted curve, though single readings scatter.
Give your call using only these classes: True (active), False (inactive)

Previously resolved entries follow.
compound: OCC(O)CO
category: False
//
compound: CO
category: False
//
compound: C[Se]CC[C@H](N)C(=O)O
category: False
//
compound: CN1CCCC(CN2c3ccccc3Sc3ccccc32)C1 (stereo unspecified)
category: True
//
compound: O=C(O)CC/C=C\CC[C@@H]1[C@@H](N2CCCCC2)[C@@H](O)C[C@@H]1OCc1ccc(-c2ccccc2)cc1
category: False

Ask: Could you please tell me the result logged for `CCOC(=O)[C@@H](N)CS` in this assay?
Result: False

Ask: Name the outcome recorded for `FC(F)(F)COCC(F)(F)F` in the assay.
Result: False

Ask: Would you mind telling me which call this test gave `COc1ccc(-c2noc(CC(=O)O)c2-c2ccc(OC)cc2)cc1` ?
Result: False

Ask: Per the records of this test, what outcome belongs to `CCCc1ccc(C(=O)O)cc1` ?
Result: False

Ask: What call does the record list for `O=c1[nH]c(=O)n([C@H]2C[C@H](O)[C@@H](CO)O2)cc1/C=C/Br` ?
Result: False

Ask: Test call, this compound: CC(C)c1nc(N(C)S(C)(=O)=O)nc(-c2ccc(F)cc2)c1/C=C/C(O)CC(O)CC(=O)O (stereo unspecified)
Result: False

----------
Tested on: CP297
Experiment: qHTS profiling for inhibitors of Plasmodium falciparum proliferation (AID 504749); note: nearly all actives have a fitted effect of over 60% in size
Conditions: P. falciparum in erythrocytes, SYBR Green DNA, 72 h; series mostly up to 28.7 µM
Records with an inconclusive call do not appear. The source made the active and inactive calls. Calls come from the whole dose curve; as a rule, active = well fitted inhibition curve with a large enough effect; inconclusive = small, poorly fitted or top-dose-only effect; inactive = flat fitted curve, though single readings scatter.
Field 'call' accepts 1.0 = active, 0.0 = inactive

Check out these entries, answers already filled in.
compound: CCCCCc1ccc(C)cc1O
category: 0.0

compound: CN1c2c(nc(N)[nH]c2=O)NCC1CNc1ccc(C(=O)NC(CCC(=O)O)C(=O)O)cc1 (stereo unspecified)
category: 0.0

compound: CC(=O)NCCCS(=O)(=O)O
category: 0.0

compound: [O-][N+](=Nc1ccccc1)c1ccccc1
category: 0.0

compound: COc1cc(NCCCC(C)N)c2ncccc2c1 (stereo unspecified)
category: 1.0

compound: CCCCC[C@H](O)/C=C/[C@H]1[C@H](O)CC(=O)[C@@H]1C/C=C\CCCC(=O)O
category: 0.0

compound: COc1ccc(C(=O)CCC(=O)O)c2ccccc12
category: 0.0

compound: CC1(O)CCC(C(C)(C)O)CC1 (stereo unspecified)
category: 0.0

Ask: State the result this test recorded for `CCCCCCCCCCCCCCCCCCCCCC(=O)Nc1ccn([C@@H]2O[C@H](CO)[C@@H](O)[C@@H]2O)c(=O)n1` .
Result: 0.0

Ask: Could you kindly confirm the outcome this assay logged for `CC/C=C\C/C=C\C/C=C\C/C=C\C/C=C\C/C=C\CCC(=O)O` ?
Result: 0.0

Ask: Check the results log: what was the call for CC1CCC(NC(=O)N(CCCl)N=O)CC1 (stereo unspecified) ?
Result: 0.0

Ask: # lookup: test call for CC1C(=O)CC2C3(C)CCC2(C(C)C(=O)O)C(=O)C13 (stereo unspecified)
Result: 0.0

Ask: Please share the test call associated with `CCN(CC)CCOC(=O)c1cccnc1` .
Result: 0.0

Ask: GET /call?item= NCC(O)CC(=O)O (stereo unspecified) returns the recorded outcome of this test.
Result: 0.0

Ask: Any idea what this test logged for `[O]=[Bi][O][Bi]=[O]` ?
Result: 0.0

Ask: Status in this test for `Nc1ncnc2c1ncn2[C@H]1CC[C@@H](CO)O1` ?
Result: 0.0

Ask: Short answer needed: outcome of this test for `CC(=O)Nc1c(I)c(C(=O)O)c(I)c(N(C)C(C)=O)c1I` ?
Result: 0.0

Ask: Which outcome was assigned to COc1ccc2c(c1)OC(C)(C)C(c1ccccc1)C2c1ccc(OCCN2CCCC2)cc1 (stereo unspecified) in this test?
Result: 1.0

Ask: I would be grateful if you could indicate the recorded call for `O=C(CCCN1CCC(C(=O)c2ccc(F)cc2)CC1)c1ccc(F)cc1` .
Result: 0.0

Ask: Per the records of this test, what outcome belongs to `COc1ccc(C(=O)c2ccc(C)cc2)c(O)c1` ?
Result: 0.0

Ask: Hi, do you know how OC1OC[C@@H](O)[C@H](O)[C@@H]1O (stereo partly specified) came out in this test?
Result: 0.0

Ask: Outcome logged for `O=C(O)c1cc(N=Nc2ccc(O)c(C(=O)O)c2)ccc1O` in this assay:
Result: 0.0

Ask: Test call, this compound: `CC(C)O`
Result: 0.0

Ask: What was the test verdict on `FC(F)(F)C(F)(F)C(F)(F)C(F)(F)C(F)(F)F` ?
Result: 0.0

Ask: Could you please tell me the result logged for `COc1ccc(/C=C/C(=O)O)cc1` in this assay?
Result: 0.0

Ask: Just curious, what result did `Nc1ccc(N=Nc2ccccc2)c(N)n1` get here?
Result: 0.0

----------
# reported max response; entries follow
Assay: qHTS Assay for Identifying Gametocytocidal Compounds (AID 743244);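 note: % is set by controls: 0 for no effect and ±100 for the full control effect; actives lower the fluorescent signal which means gametocytes are killed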
Details: P. falciparum 3D7 stage III-V gametocytes, alamarBlue, 72 h; active compounds read low
Text: Malaria cases and deaths have dropped 50% in 29 countries since 2000 due to the combined effects of long-lasting insecticidal bednets, indoor residual spraying, and artemisinin-based combination therapies (ACTs). […] Within live cells, the nonfluorescent resazurin is reduced to resorufin, a bright red fluorescence dye. Fluorescence decreases upon treatment of gametocytocidal compounds. […]
Results filed as inconclusive are left out.
The answer is to be given in %; state only the numeric part.

Recorded max response, per entry:
compound: F[Si-2](F)(F)(F)(F)F
endpointResult: 2.76
--
compound: N=C(N)c1ccc(/C=C/c2ccc(C(=N)N)cc2O)cc1
endpointResult: 21.7
--
compound: O=[n+]1ccn([O-])c2ccccc21
endpointResult: -5.38

Notebook: `ClC(Cl)Cl` , max response read as 9.6

// field: max response; key: O=C(CCCN1CCN2CCCC2C1)c1ccc(F)cc1 (configuration not stated) ; value = 7.46

The reported value for `COc1ccc(C(=O)c2ccc(C)cc2)c(O)c1` in terms of max response is -6.86

Field max response (entry `CCCc1nc(C(C)(C)O)c(C(=O)OCc2oc(=O)oc2C)n1Cc1ccc(-c2ccccc2-c2nn[nH]n2)cc1` ) reads 48.2

Record CC(=O)Nc1c(I)c(C(=O)N[C@H]2C(O)O[C@H](CO)[C@@H](O)[C@@H]2O)c(I)c(N(C)C(C)=O)c1I (some centres not stated) . Reported max response: 5.57

Data point: `Cc1ncc(COP(=O)(O)O)c(CN)c1O` ; max response = -10.8
